test system: Tadpole; experiment: Tadpole loss of righting (LRR) and loss of swimming (LSR) reflexes; assay type: in vivo; conditions: concentration of 3 μM; number of 10 tadpoles
Marks after values point to notes of the source that are not given here.
tadpoles that lost LRR values, listed per item
measured.metric: tadpoles that lost LRR

C[C@@]12CC[C@H](O)C[C@H]1CC[C@H]1[C@H]2CC[C@@]2(C)C=C(C#N)C[C@H]12; 5/10^b
CO[C@@H]1C[C@@H]2[C@H]3CC[C@@H]4C[C@@H](O)CC[C@@]4(C)[C@@H]3CC[C@@]2(C)C1; 10/10^a
CO[C@@H]1C[C@@H]2[C@H]3C[C@H](OC)[C@@H]4C[C@@H](O)CC[C@@]4(C)[C@@H]3CC[C@@]2(C)C1; 10/10^a
CC(=O)[C@@H]1C[C@@H]2[C@H]3CC[C@@H]4C[C@@H](O)CC[C@@]4(C)[C@@H]3CC[C@@]2(C)C1; 10/10^a
C[C@@]12CC[C@@H]3[C@H](CC[C@@H]4C[C@@H](O)CC[C@]43C)[C@H]1C[C@@H](C#N)C2; 10/10^a
